Target or system human ACC2 (Homo sapiens (Human), UniProt O00763); metric IC50; compiled from varied reports.
Give the quantity in nM, number only.

Which IC50 is listed for CCNC(=O)C(C)c1ccc(C2CCN(c3ccnc(OC(C)C)n3)CC2)cc1 (stereo not shown) ?
3050

Now give it for CC(=O)N[C@@H](C)c1ccc(OC2CCN(c3ccc(OC(F)F)cc3)C2)cc1 (stereo partly shown) too.
496

Now give it for CC(=O)N[C@@H](C)c1ccc(OC2CCN(c3cc(OCC4CC4(F)F)ncc3C)C2)cc1 (stereo partly shown) too.
278

Now give it for CCOc1ccc(C#Cc2ccc(CC(C)NC(=O)c3nc[nH]n3)cc2)cc1 (stereo not shown) too.
19200
